# METHOD_SUMMARY: Quantitative High-Throughput drug screen in 47 multiple myeloma cell lines against the NCATS MIPE library collection: KMS27_JCRB cell viability assay (AID 1918970); note: nearly all actives have a fitted effect of over 30% in size
# TEST_SETTINGS: KMS27 myeloma cells, CellTiter-Glo ATP viability, 48 h; series mostly up to 45.8 µM
Records with an inconclusive call do not appear. Activity calls are given as the source filed them. Calls come from the whole dose curve; as a rule, active = well fitted cell-killing curve with a large enough effect; inconclusive = small, poorly fitted or top-dose-only effect, or effect the other way; inactive = no such curve, though single readings can be large or run the other way.
Classes to choose from: 1.0 (active), 0.0 (inactive)

Answered examples (3):
CHEMICAL_STRING: O=C(NOCC1CC1)c1ccc(F)c(F)c1Nc1ccc(I)cc1Cl
CATEGORY_LABEL: 1.0
--
CHEMICAL_STRING: O=C(O)CCNC(=O)c1ccc(N=Nc2ccc(O)c(C(=O)O)c2)cc1
CATEGORY_LABEL: 0.0
--
CHEMICAL_STRING: CCN(CC)CCOc1ccc(Nc2ncc3cc(-c4c(Cl)cccc4Cl)c(=O)n(C)c3n2)cc1
CATEGORY_LABEL: 1.0

Write down the call the test reported for this compound. Item: Cc1ccc(C(=O)c2cc(O)c(O)c([N+](=O)[O-])c2)cc1
1.0

----------
# METHOD_SUMMARY: Quantitative High-Throughput drug screen in 47 multiple myeloma cell lines against the NCATS MIPE library collection: VP6_DJ cell viability assay (AID 1919867); note: nearly all actives have a fitted effect of over 40% in size; note: potency is the fitted concentration of half-maximal effect
# TEST_SETTINGS: ATP luminescence, 48 h; series mostly up to 45.8 µM
# Description: PI: Beverly A. Mock Ph.D. Laboratory of Cancer Biology and Genetics, Center for Cancer Research, National Cancer Institute, National Institute of Health, Bethesda, Maryland […] 5; Detector; 425V; Luminescence; Viewlux PerkinElmer. […] 1. […] Briefly, the corresponding myeloma cell lines were screened in 1,536-well plates with 500 cells, 5-uL per well for inhibition of cell viability (assessed by measuring ATP levels with CellTiterGlo). […]
Results filed as inconclusive are left out. Calls of active or inactive are those of the source. The call rests on the fitted dose curve; in most records, active means well fitted cell-killing curve with a large enough effect; inconclusive means small, poorly fitted or top-dose-only effect, or effect the other way; inactive means no such curve, though single readings can be large or run the other way.
VALUE_TYPE: Potency

MOLECULE: CCN(CC)C(=S)SSC(=S)N(CC)CC
Potency: 0.001 µM (active)
--
MOLECULE: CN(C)c1ccc2nc3ccc(=[N+](C)C)cc-3sc2c1
Potency: 1.32 µM (active)
--
MOLECULE: Nc1ccn([C@@H]2O[C@H](CO)[C@@H](O)C2O)c(=O)n1 (stereo not given in full)
Potency: inactive
--
MOLECULE: O=C(CS(=O)Cc1ccco1)NCC=CCOc1cc(CN2CCCCC2)ccn1 (stereo not given)
Potency: 16.6 µM (active)
--
MOLECULE: CN(C)CCCC1(c2ccc(F)cc2)OCc2cc(C#N)ccc21 (stereo not given)
Potency: inactive

// Input: Clc1ccc(C(Cn2ccnc2)OCc2c(Cl)cccc2Cl)c(Cl)c1 (stereo not given) . Output its Potency only.
16.6 µM (active)

// Input: CCN(CC)CCOc1ccc(Nc2ncc3cc(-c4c(Cl)cccc4Cl)c(=O)n(C)c3n2)cc1 . Output its Potency only.
0.0083 µM (active)

// Input: CCCCc1ccc2nc(NC(=O)OC)[nH]c2c1 . Output its Potency only.
0.0047 µM (active)

// Input: C[C@H](Cn1cnc2c(N)ncnc21)OCP(=O)(O)O . Output its Potency only.
inactive

// Input: N=C(N=C(N)N)N1CCOCC1 . Output its Potency only.
inactive

// Input: O=C(NCC1CCCCN1)c1cc(OCC(F)(F)F)ccc1OCC(F)(F)F (stereo not given) . Output its Potency only.
3.72 µM (active)

// Input: Oc1ccc2ccccc2c1SSc1c(O)ccc2ccccc12 . Output its Potency only.
16.6 µM (active)

// Input: CC(C)C[C@H](NC(=O)[C@H](Cc1ccccc1)NC(=O)c1cnccn1)B(O)O . Output its Potency only.
0.0074 µM (active)

// Input: COc1ccc(C2(C#N)CCC(C(=O)O)CC2)cc1OC1CCCC1 (stereo not given) . Output its Potency only.
16.6 µM (active)

----------
# System: DIV30
# METHOD_SUMMARY: qHTS profiling for inhibitors of Plasmodium falciparum proliferation (AID 504749); note: nearly all actives have a fitted effect of over 60% in size
# TEST_SETTINGS: P. falciparum in erythrocytes, SYBR Green DNA, 72 h; series mostly up to 28.7 µM
Results filed as inconclusive are left out. Activity calls are given as the source filed them. Calls come from the whole dose curve; as a rule, active = well fitted inhibition curve with a large enough effect; inconclusive = small, poorly fitted or top-dose-only effect; inactive = flat fitted curve, though single readings scatter.
Classes to choose from: true (active), false (inactive)

Write down the call the test reported for this compound. Item: Clc1ccc(C(Cn2ccnc2)OCc2ccsc2Cl)c(Cl)c1 (stereo not given)
true

Write down the call the test reported for this compound. Item: COC1=C(OC)C(=O)C(CCCCCCCCCCO)=C(C)C1=O
false

Write down the call the test reported for this compound. Item: CC(C)c1ccc2oc3nc(N)c(C(=O)O)cc3c(=O)c2c1
false

Write down the call the test reported for this compound. Item: CC(C)[C@H](N)C(=O)OCCOCn1cnc2c(=O)[nH]c(N)nc21
false

Write down the call the test reported for this compound. Item: CN(C)c1ccc2nc3ccc(=[N+](C)C)cc-3sc2c1
true

Write down the call the test reported for this compound. Item: COc1cc2c(cc1OC)C1CC(=O)C(CC(C)C)CN1CC2 (stereo not given)
false

----------
# METHOD_SUMMARY: qHTS Screen of the MIPE 4.0 Collection Against Ewings Sarcoma (EW8) (AID 1259255); note: nearly all actives have a fitted effect of over 35% in size;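 for viability: 100% = DMSO-treated cells and 0% = medium-only wells without cells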
# TEST_SETTINGS: EW8 Ewing sarcoma viability, CellTiter-Glo, 48 h; series mostly up to 45.8 µM
Inconclusive results are not listed. The source made the active and inactive calls. Calls come from the whole dose curve; as a rule, active = well fitted inhibition curve with a large enough effect; inconclusive = small, poorly fitted or top-dose-only effect; inactive = no such curve, though single readings can be large or run the other way.
Classes to choose from: active, inactive

COMPOUND: S=c1nc[nH]c2nc[nH]c12
CATEGORY_LABEL: active
--
COMPOUND: COc1ccc2cc([C@H](C)C(=O)O)ccc2c1
CATEGORY_LABEL: inactive
--
COMPOUND: c1cnc2cc3c(cc2n1)C1CNCC3C1
CATEGORY_LABEL: inactive
--
COMPOUND: O=C(c1ccccc1)c1ccc2n1CCC2C(=O)O (configuration not stated)
CATEGORY_LABEL: active
--
COMPOUND: CC1(C)C(=O)N(CCN2CCC(C(=O)c3ccc(F)cc3)CC2)c2ccccc21
CATEGORY_LABEL: inactive

Write down the call the test reported for this compound. Item: O=c1cc(N2CCOCC2)oc2c(-c3ccccc3)cccc12
active

Write down the call the test reported for this compound. Item: CCCCCCCCOc1ccccc1C(=O)Nc1ccc(C(=O)OCC[N+](C)(CC)CC)cc1
active

----------
# METHOD_SUMMARY: qHTS drug screen for cell cycle checkpoint inhibitors in PARPi-resistant BRCA-mutant ovarian cancer cell lines. (AID 1963452)
# TEST_SETTINGS: PEO1/OlaR viability, CellTiter-Glo luminescence, 96 h; measured here: PEO1 parental Z-AUC; stronger effect = lower value
VALUE_TYPE: Z-AUC
API doc: respond with a numeric literal and nothing else, no unit.

COMPOUND: CC(C)(S)[C@@H](N)C(=O)O
TEST_VALUE: 0.891

COMPOUND: CC(=O)O[C@H]1C(=O)[C@@]2(C)C([C@H](OC(=O)c3ccccc3)[C@]3(O)C[C@H](OC(=O)[C@H](O)[C@@H](NC(=O)c4ccccc4)c4ccccc4)C(C)=C1C3(C)C)[C@]1(OC(C)=O)CO[C@@H]1C[C@@H]2O (stereo partly drawn)
TEST_VALUE: -2.74

COMPOUND: CCCOc1ccc2nc(NC(=O)OC)[nH]c2c1
TEST_VALUE: -0.504

COMPOUND: CCOC(=O)c1c(C)n(C)c2ccc(O)cc12
TEST_VALUE: 0.765

COMPOUND: CC(C)c1ccc2c(c1)c(SC(C)(C)C)c(CC(C)(C)C(=O)O)n2Cc1ccc(Cl)cc1
TEST_VALUE: 0.791

COMPOUND: Cc1cc(C2CCCCC2)n(O)c(=O)c1
TEST_VALUE: 0.159

COMPOUND: CNC[C@H](O)c1ccc(O)c(O)c1
TEST_VALUE: 1.34

COMPOUND: Cc1nc(Nc2ncc(C(=O)Nc3c(C)cccc3Cl)s2)cc(N2CCN(CCO)CC2)n1
TEST_VALUE: -2.38

COMPOUND: CCOC(=O)C1=C(O)C(=O)N(Cc2ccccc2)C1
TEST_VALUE: 1.01

COMPOUND: Cc1cc2cc3c(C)cc(=O)oc3c(C)c2o1
TEST_VALUE: 0.892

// Input: CC(=O)NC[C@H]1CN(c2ccc(N3CCOCC3)c(F)c2)C(=O)O1 . Output its Z-AUC only.
-0.362

// Input: CN1CCC(=C2c3ccccc3CCc3sccc32)CC1 . Output its Z-AUC only.
-1.2

// Input: CC1Cc2ccccc2N1NC(=O)c1ccc(Cl)c(S(N)(=O)=O)c1 (stereo not drawn) . Output its Z-AUC only.
-0.0256

----------
# Test system: ATS189
# METHOD_SUMMARY: qHTS profiling for inhibitors of Plasmodium falciparum proliferation (AID 504749); note: nearly all actives have a fitted effect of over 60% in size
# TEST_SETTINGS: P. falciparum in erythrocytes, SYBR Green DNA, 72 h; series mostly up to 28.7 µM
Records with an inconclusive call do not appear. The source made the active and inactive calls. Calls follow the shape of the dose curve; as a rule, active = well fitted inhibition curve with a large enough effect; inconclusive = small, poorly fitted or top-dose-only effect; inactive = flat fitted curve, though single readings scatter.
Classes to choose from: active, inactive

Answered examples (5):
MOLECULE: Cc1ccc(NC(=O)c2ccc(CN3CCN(C)CC3)cc2)cc1Nc1nccc(-c2cccnc2)n1
CATEGORY_LABEL: active
//
MOLECULE: Oc1ccc(OCc2ccccc2)cc1
CATEGORY_LABEL: inactive
//
MOLECULE: COc1cc2c(cc1OC)C1CC(=O)C(CC(C)C)CN1CC2 (centres undefined)
CATEGORY_LABEL: inactive
//
MOLECULE: CC(S)C(=O)NCC(=O)O (centres undefined)
CATEGORY_LABEL: inactive
//
MOLECULE: C[C@H](Cn1cnc2c(N)ncnc21)OCP(=O)(O)O
CATEGORY_LABEL: inactive

Write down the call the test reported for this molecule. Item: C=C(c1ccc(C(=O)O)cc1)c1cc2c(cc1C)C(C)(C)CCC2(C)C
inactive

Write down the call the test reported for this molecule. Item: CN(c1nccc(=O)[nH]1)C1CCN(c2nc3ccccc3n2Cc2ccc(F)cc2)CC1
inactive

Write down the call the test reported for this molecule. Item: O=c1oc2cc(O)ccc2s1
inactive

Write down the call the test reported for this molecule. Item: CC1(C)CCC(C)(C)c2cc(NC(=O)c3ccc(C(=O)O)cc3)ccc21
inactive
